assay: Tissue distribution of TET after a single i.t. administration in normal and LPS-treated mice; settings: BALB/c, mouse, heart, inhaled or intranasal, 15 mg/kg, AUC(0-t), normal mice; 15 mg/kg i.t.
readout: AUC(0-t) (µg·h/mL)
Note: unit µg·h/mL is implicit; provide only the numeric part.

Challenge: Requested read-out: AUC(0-t). Entry: COc1ccc2cc1Oc1ccc(cc1)C[C@H]1c3cc(c(OC)cc3CCN1C)Oc1c(OC)c(OC)cc3c1[C@H](C2)N(C)CC3 [TET, Tetrandrine]
Response given: 880

====

test: Tissue distribution of TET after a single i.t. administration in normal and LPS-treated mice; conditions: BALB/c, mouse, kidney, other: intratracheal (i.t.), 15 mg/kg, Kp (AUC in tissue divided by AUC in blood), LPS-treated mice; 15 mg/kg i.t.; kidney
readout: Kp

Challenge: Requested read-out: Kp. Entry: "COc1ccc2cc1Oc1ccc(cc1)C[C@H]1c3cc(c(OC)cc3CCN1C)Oc1c(OC)c(OC)cc3c1[C@H](C2)N(C)CC3"
Response given: 36.2

These data points were gathered from paper PMC9655037.
